molecules and their reported Kp at 1 h
- ASSAY INFO: Ratio of total drug level in brain to blood in Han Wistar rat at 30 mg/kg, po measured at 1 hr by LC-MS/MS analysis
- Assay type: ADME, organism-based
- Parameters: dose 30 mg/kg, route oral
- APPLIED CONDITIONS: read-out: BBR

COMPOUND STRING	Kp at 1 h
O=C(N[C@H]1C2CC3CC1C[C@](O)(C3)C2)c1sc(OC2CCOCC2)nc1[C@H]1CCCO1	1.1

// moving on: another record for Kp at 1 h
# molecule `O=C(N[C@H]1C2CC3CC1C[C@](O)(C3)C2)c1sc(OCCO)nc1C1CC1` ; its Kp at 1 h = 0.2

Data credit: ChEMBL document CHEMBL3124933
